# subject.of.test: Focal adhesion kinase 1 (Homo sapiens) (UniProt Q05397)
# Sequence (Q05397 whole entry, looked up): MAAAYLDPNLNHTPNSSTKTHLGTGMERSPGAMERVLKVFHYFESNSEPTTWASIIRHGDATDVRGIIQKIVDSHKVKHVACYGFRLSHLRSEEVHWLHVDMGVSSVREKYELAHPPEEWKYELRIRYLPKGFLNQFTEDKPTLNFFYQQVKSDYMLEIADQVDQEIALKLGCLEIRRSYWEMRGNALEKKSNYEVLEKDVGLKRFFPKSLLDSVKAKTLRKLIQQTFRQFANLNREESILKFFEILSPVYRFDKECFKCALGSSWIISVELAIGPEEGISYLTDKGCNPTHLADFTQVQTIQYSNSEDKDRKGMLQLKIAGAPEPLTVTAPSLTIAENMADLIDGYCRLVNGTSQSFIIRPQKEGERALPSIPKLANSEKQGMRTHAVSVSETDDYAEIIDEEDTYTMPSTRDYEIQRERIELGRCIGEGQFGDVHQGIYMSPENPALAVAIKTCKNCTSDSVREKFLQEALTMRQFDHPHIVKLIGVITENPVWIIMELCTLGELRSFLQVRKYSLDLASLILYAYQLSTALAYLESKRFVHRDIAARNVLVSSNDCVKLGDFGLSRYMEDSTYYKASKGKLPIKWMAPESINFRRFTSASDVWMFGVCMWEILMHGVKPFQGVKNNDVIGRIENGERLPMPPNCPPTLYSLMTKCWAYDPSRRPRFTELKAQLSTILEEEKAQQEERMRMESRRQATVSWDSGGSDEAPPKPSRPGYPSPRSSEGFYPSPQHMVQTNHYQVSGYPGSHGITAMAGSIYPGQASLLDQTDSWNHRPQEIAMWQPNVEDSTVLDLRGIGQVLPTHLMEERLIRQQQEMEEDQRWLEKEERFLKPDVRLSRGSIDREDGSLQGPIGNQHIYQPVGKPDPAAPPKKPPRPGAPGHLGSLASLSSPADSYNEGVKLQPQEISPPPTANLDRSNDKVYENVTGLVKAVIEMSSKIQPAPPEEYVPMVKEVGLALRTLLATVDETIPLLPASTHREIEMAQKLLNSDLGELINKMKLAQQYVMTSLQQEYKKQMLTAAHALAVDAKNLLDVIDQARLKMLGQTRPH
# experiment: small-molecule microarray binders of FAK, primary screen, biochemical, 635/667 nm fluorescence, BSA, DTT (AID 1130);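 further: composite of spot emission at 667 nm and signal to noise over triplicate slides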
# condition.notes: PTK2 binding, 635 nm fluorescence, higher = more signal
assay.readout: composite z-score
Form: value (number only, do not type unit).

Here's what some known entries look like.
Param readout = composite z-score; param system = Focal adhesion kinase 1 (Homo sapiens) (UniProt Q05397); param query = CCOc1cc(C(O)C2C=CC3C(=O)N(c4ccccc4)C(=O)C3N2Nc2ccccc2)ccc1O (centres undefined) ; response: value
1.54

Same read-out for CCOC1=C2C(CN(S(=O)(=O)c3ccc(C)cc3)C2c2ccc(C)cc2)C2C(=O)N(c3ccccc3)C(=O)C2C1 (centres undefined) ?
0.553

Same read-out for C=C(CCCC)C(=O)CC[C@H](OC(=O)c1cccnc1)c1ccccc1OCCO ?
0.0467

As a next step, examine the compound that follows.
Param readout = composite z-score; param system = Focal adhesion kinase 1 (Homo sapiens) (UniProt Q05397); param query = CC1CC/C=C\[C@H]2OC34C=CCN(C(C)(C)C)C(=O)[C@H]3N(CCCCCCO)C(=O)[C@@H]4C2C(=O)O1 (some centres undefined) ; response: value
-0.61

---

# experiment: HepG2 cell viability effects, profiling panel, calcein-AM fluorescence, 48 h, basal (AID 1164); further: test concentration not given here
# condition.notes: higher = more signal
Each entry gets Condition not met if its z-score stays under 0.005, and Condition met if its z-score is 0.005 or above.

Solved cases (5 shown):
z-score >= 0.005 for [N-]=[N+]=NCc1ccccc1[C@@H]1OC(c2ccc(OCCCO)cc2)=N[C@]1(Cc1ccccc1N=[N+]=[N-])C(=O)N1CCOCC1 ?
Condition not met

Same read-out for COc1cc(CO)cc(I)c1O[C@H]1C=C(C(=O)NCCO)C[C@@H](N(CCN2CCOCC2)C(=O)C2CCOC2)[C@@H]1O (stereo partly drawn) ?
Condition met

Same read-out for [N-]=[N+]=Nc1ccccc1C[C@]1(C(=O)NCC(O)CO)N=C(c2ccc(OCCCO)cc2)O[C@H]1c1ccccc1N=[N+]=[N-] (stereo partly drawn) ?
Condition not met

Same read-out for C=CCOC(=O)[C@@H]1[C@H]2C(=O)O[C@H](c3ccccc3)[C@H](c3ccccc3)N2[C@H](c2ccc(OCCOC(=O)[C@@H]3C[C@@H]4C(=O)N5CCC[C@H]5C(=O)N4[C@@H]3c3ccc(O)cc3)cc2)[C@@]12C(=O)Nc1ccc(I)cc12 ?
Condition met

Same read-out for C#CCN(CC=C(C)C)[C@H](CO)c1ccccc1 ?
Condition not met

New cases:
z-score >= 0.005 for CC(C)C[C@@H]1NC(=O)[C@H]2C[C@@H](C(=O)NCCCCCCN(C)C)[C@@H](c3ccc(O)cc3)N2C1=O ?
Condition not met

Same read-out for CC(C)C(CO)N1C(=O)[C@@H]2[C@H]3C(=O)OCC=C[C@H]3OC23C=CCN(C(C)C)C(=O)[C@@H]13 (stereo partly drawn) ?
Condition not met

Same read-out for COc1ccc(CCN2C(=O)[C@@]3(Cc4ccccc42)c2ccccc2C(=O)N(Cc2ccccc2C(F)(F)F)[C@H]3c2ccc(CO)cc2)cc1 ?
Condition not met

Same read-out for C=C[C@H](COC(C)=O)N(C(=O)OC(C)(C)C)S(=O)(=O)c1ccc(Br)cc1 ?
Condition met

Same read-out for CC(C)c1ccc(NN2C(C(O)c3cc(C(F)(F)F)cc(C(F)(F)F)c3)C=CC3C(=O)N(c4ccccc4)C(=O)C32)cc1 (stereo not drawn) ?
Condition not met

Same read-out for COCCn1c(C(=O)N2CCCC2)cc2c1C[C@H]1CN(C(=O)c3ccccc3)[C@@](Cc3ccc(F)cc3)(C(=O)OC)[C@@H]21 ?
Condition not met

Same read-out for O=C1OCCC/C=C\[C@H]2OC34C=CCN(Cc5ccccc5)C(=O)[C@H]3N(CCCCCCO)C(=O)[C@@H]4C12 (stereo partly drawn) ?
Condition met

Same read-out for C=CCC(OC(C)=O)[C@@H]1[C@@H](N(Cc2ccc(-c3ccccc3)cc2)C(=O)Cc2ccc(F)cc2)c2cc(OCCCO)ccc2N1C(=O)c1ccc(-c2ccccc2)cc1 (stereo partly drawn) ?
Condition met

Measured values drawn from PubChem BioAssay for this set.
